- test.protocol: Growth inhibition of human Prostate cancer cells after 48 hrs
- Type: functional
- assay.conditions: Cancer cell lines
outcome.measure: GI50 (µM)

In [3]: df
Out[3]:
                         chemical_structure  comparison_symbol  experimental_value
0  O=C(Nc1sc2c(c1C(=O)N1CCN(c3ccccc3)CC1)CCCCC2)NS(=O)(=O)c1ccccc1                  =                60.3
1  O=c1[nH]c2sc3c(c2c(=O)n1S(=O)(=O)c1ccccc1)CCCCC3                  =                34.2
2  O=C(Nc1sc2c(c1C(=O)NNc1ccc(Cl)cc1)CCCCC2)NS(=O)(=O)c1ccccc1                  =                14.5
3  O=C(Nc1sc2c(c1C(=O)NNc1ccc(Br)cc1)CCCCC2)NS(=O)(=O)c1ccccc1                  >                 100
4  CCCCNC(=O)c1c(NC(=O)NS(=O)(=O)c2ccccc2)sc2c1CCCCC2                  =                92.6
5  CCCNC(=O)c1c(NC(=O)NS(=O)(=O)c2ccccc2)sc2c1CCCCC2                  =                90.2
6  CN1CCN(C(=O)c2c(NC(=O)NS(=O)(=O)c3ccccc3)sc3c2CCCCC3)CC1                  =                80.2
7  NNC(=O)c1c(NC(=O)NS(=O)(=O)c2ccccc2)sc2c1CCCCC2                  =                15.8
8  O=C(Nc1sc2c(c1C(=O)NNc1ccccc1)CCCCC2)NS(=O)(=O)c1ccccc1                  >                 100

* * *

- System: Melanoma cell
- test.protocol: Growth inhibition of human Melanoma cells after 48 hrs
- Assay type: functional
outcome.measure: GI50

                         chemical_structure  experimental_value
0  O=C(Nc1sc2c(c1C(=O)N1CCN(c3ccccc3)CC1)CCCCC2)NS(=O)(=O)c1ccccc1             52.3 µM
1  O=C(Nc1sc2c(c1C(=O)NNc1ccc(Br)cc1)CCCCC2)NS(=O)(=O)c1ccccc1             31.3 µM
2  O=C(Nc1sc2c(c1C(=O)NNc1ccc(Cl)cc1)CCCCC2)NS(=O)(=O)c1ccccc1              4.2 µM
3  O=c1[nH]c2sc3c(c2c(=O)n1S(=O)(=O)c1ccccc1)CCCCC3             26.2 µM
4  O=C(Nc1sc2c(c1C(=O)NNc1ccccc1)CCCCC2)NS(=O)(=O)c1ccccc1             32.3 µM
5  CN1CCN(C(=O)c2c(NC(=O)NS(=O)(=O)c3ccccc3)sc3c2CCCCC3)CC1             61.2 µM
6  NNC(=O)c1c(NC(=O)NS(=O)(=O)c2ccccc2)sc2c1CCCCC2              4.5 µM
7  CCCCNC(=O)c1c(NC(=O)NS(=O)(=O)c2ccccc2)sc2c1CCCCC2             76.7 µM
8  CCCNC(=O)c1c(NC(=O)NS(=O)(=O)c2ccccc2)sc2c1CCCCC2             65.3 µM
